pKi: −log10 of the molar value.
Across several studies, molecules have been characterized by their pKi on Glutamate receptor ionotropic, NMDA 1 (Rattus norvegicus); a selection follows.
Property Label: pKi

- Molecule: "CCc1[nH]c(C(=O)O)c(/C=C/C(=O)Nc2ccccc2)c1C"
  Target Or System: "Glutamate receptor ionotropic, NMDA 1 (Rattus norvegicus)"
  Endpoint Value: 6.11
- Molecule: "O=C(/C=C/c1c(C(=O)O)[nH]c2c1CCC2)Nc1ccccc1"
  Target Or System: "Glutamate receptor ionotropic, NMDA 1 (Rattus norvegicus)"
  Endpoint Value: 5.94
- Molecule: "O=c1[nH]c2cc(Cl)cc(Cl)c2c(O)c1-c1ccc([N+](=O)[O-])cc1"
  Target Or System: "Glutamate receptor ionotropic, NMDA 1 (Rattus norvegicus)"
  Endpoint Value: 6.07
- Molecule: "N[C@H]1C(=O)N(O)C[C@H]1O"
  Target Or System: "Glutamate receptor ionotropic, NMDA 1 (Rattus norvegicus)"
  Endpoint Value: 6.12
- Molecule: "O=C(O)c1cc2c(Cl)cc(Cl)cc2[nH]1"
  Target Or System: "Glutamate receptor ionotropic, NMDA 1 (Rattus norvegicus)"
  Endpoint Value: 6.01
- Molecule: "O=C(O)c1cc2n(n1)C(C(=O)O)Nc1ccccc1-2 (stereo unspecified)"
  Target Or System: "Glutamate receptor ionotropic, NMDA 1 (Rattus norvegicus)"
  Endpoint Value: 5.85
